species: Rattus norvegicus; experiment: DrugMatrix - Regimen: Daily Repeat; format: toxicity, organism-based, Sprague-Dawley; set-up: regimen Daily Repeat, gender Male, age 6-8 weeks; conditions: in vivo, po, 0 mg/kg, 120 h, tissue Blood, route oral GAVAGE, dose level Control, time 5 day, vehicle .5 % CMC
quantity kind: EOSINOPHIL (%)
Could you give me the number in %? Just the number is fine.

Some solved entries appear below for comparison.
[
  {
    "compound": "CC(=O)Nc1ccc2c(c1)Cc1ccccc1-2 [2-ACETYLAMINOFLUORENE]",
    "reported measurement": 0.33
  },
  {
    "compound": "CN(C)CCC=C1c2ccccc2COc2ccccc21 [DOXEPIN]",
    "reported measurement": 0
  },
  {
    "compound": "CCN(CC)CCNC(=O)c1cc(Cl)c(N)cc1OC [METOCLOPRAMIDE]",
    "reported measurement": 0.4
  },
  {
    "compound": "Cc1cc2c(s1)Nc1ccccc1N=C2N1CCN(C)CC1 [OLANZAPINE]",
    "reported measurement": 0.17
  },
  {
    "compound": "COc1cc(/C=C/C(=O)O)ccc1O [FERULATE]",
    "reported measurement": 1.33
  }
]

Recorded EOSINOPHIL of CCN1CCN(c2cc3c(cc2F)c(=O)c(C(=O)O)cn3C2CC2)CC1 [ENROFLOXACIN] , please.
0.4

Recorded EOSINOPHIL of Nc1ccc(C(=O)O)c(O)c1 [AMINOSALICYLIC ACID] , please.
0.17

* * *

species: Rattus norvegicus; assay: DrugMatrix - Regimen: Daily Repeat; format: toxicity, organism-based, Sprague-Dawley; design: regimen Daily Repeat, gender Male, age 6-8 weeks; settings: in vivo, po, 0 mg/kg, 72 h, tissue Plasma, route oral GAVAGE, dose level Control, time 3 day, vehicle 100 % WATER
Examples of compounds with documented TOTAL PROTEIN follow.
Could you give me the number in G/DL? Just the number is fine.

Some solved entries appear below for comparison.
[
  {
    "given smiles": "C1CCN2C[C@@H]3C[C@@H](CN4CCCC[C@@H]34)[C@H]2C1",
    "quantity kind": "TOTAL PROTEIN",
    "reported measurement": 5.95
  },
  {
    "given smiles": "CCN(CC)C(=S)SSC(=S)N(CC)CC",
    "quantity kind": "TOTAL PROTEIN",
    "reported measurement": 6.1
  },
  {
    "given smiles": "CCC1(c2ccccc2)C(=O)NC(=O)NC1=O",
    "quantity kind": "TOTAL PROTEIN",
    "reported measurement": 6.08
  },
  {
    "given smiles": "CC(Cl)(Cl)Cl",
    "quantity kind": "TOTAL PROTEIN",
    "reported measurement": 5.95
  },
  {
    "given smiles": "C[N+](C)(C)CCOC(N)=O.[Cl-]",
    "quantity kind": "TOTAL PROTEIN",
    "reported measurement": 6.08
  }
]

Would you kindly look at the next entry?
Recorded TOTAL PROTEIN of Cc1cn([C@H]2C=C[C@@H](CO)O2)c(=O)[nH]c1=O , please.
6.08

* * *

species on record: Rattus norvegicus; experiment: DrugMatrix - Regimen: Daily Repeat; assay type: toxicity, organism-based, Sprague-Dawley; set-up: regimen Daily Repeat, gender Male, age 6-8 weeks; conditions: in vivo, po, 0 mg/kg, 72 h, tissue Blood, route oral GAVAGE, dose level Control, time 3 day, […]
quantity kind: MEAN CORPUSCULAR HEMOGLOBIN CONCENTRATION (G/DL)
Could you give me the number in G/DL? Just the number is fine.

Some solved entries appear below for comparison.
[
  {
    "given smiles": "CS(=O)(=O)c1ccc(C2=C(c3ccccc3)C(=O)OC2)cc1",
    "reported measurement": 39.62
  },
  {
    "given smiles": "O=C(O)COC(=O)Cc1ccccc1Nc1c(Cl)cccc1Cl",
    "reported measurement": 39.03
  },
  {
    "given smiles": "CC#C[C@]1(O)CC[C@H]2[C@@H]3CCC4=CC(=O)CCC4=C3[C@@H](c3ccc(N(C)C)cc3)C[C@@]21C",
    "reported measurement": 39.85
  },
  {
    "given smiles": "COC(=O)Nc1nc2ccc(C(=O)c3ccccc3)cc2[nH]1",
    "reported measurement": 39.03
  }
]

Would you kindly look at the next entry?
Recorded MEAN CORPUSCULAR HEMOGLOBIN CONCENTRATION of CC(C)(c1ccc(O)cc1)c1ccc(O)cc1 , please.
39.4

* * *

organism: Rattus norvegicus; assay: DrugMatrix - Regimen: Daily Repeat; format: toxicity, organism-based, Sprague-Dawley; set-up: regimen Daily Repeat, gender Male, age 6-8 weeks; details: in vivo, po, 0 mg/kg, 72 h, tissue Plasma, route oral GAVAGE, dose level Control, time 3 day, vehicle .5 % CMC
Examples of compounds with documented PHOSPHORUS follow.
Could you give me the number in mg/dL? Just the number is fine.

[
  {
    "compound": "CC(C)(C#N)c1cc(Cn2cncn2)cc(C(C)(C)C#N)c1 [ANASTROZOLE]",
    "result units": "mg/dL",
    "reported measurement": 12.4
  }
]

Recorded PHOSPHORUS of COc1ccc(Cl)cc1C(=O)NCCc1ccc(S(=O)(=O)NC(=O)NC2CCCCC2)cc1 [GLYBURIDE] , please.
10.08

Recorded PHOSPHORUS of CC(=O)Nc1ccc2c(c1)Cc1ccccc1-2 [2-ACETYLAMINOFLUORENE] , please.
11.23

Recorded PHOSPHORUS of NC(=O)CN1CCCC1=O , please.
11.57

Recorded PHOSPHORUS of COc1cc(/C=C/C(=O)O)ccc1O [FERULATE] , please.
13.25

Recorded PHOSPHORUS of COc1cc(NC(C)CCCN)c2ncccc2c1 (stereo not drawn) [PRIMAQUINE] , please.
10.52

Recorded PHOSPHORUS of CCN1CCN(c2cc3c(cc2F)c(=O)c(C(=O)O)cn3C2CC2)CC1 [ENROFLOXACIN] , please.
10.48

Recorded PHOSPHORUS of CC(C)NCC(O)COc1ccc(CC(N)=O)cc1 (stereo not drawn) [ATENOLOL] , please.
11.43

Recorded PHOSPHORUS of CCN1CCCC1CNC(=O)c1cc(S(N)(=O)=O)ccc1OC (stereo not drawn) [SULPIRIDE] , please.
11.67

Recorded PHOSPHORUS of CN(C)CCC=C1c2ccccc2COc2ccccc21 [DOXEPIN] , please.
11.43

Recorded PHOSPHORUS of Cl.NC[C@H]1CC[C@H](C(=O)Oc2ccc(CCC(=O)O)cc2)CC1 [CETRAXATE HYDROCHLORIDE] , please.
13.25

Recorded PHOSPHORUS of CN(C)CCOC(c1ccccc1)c1ccccc1.Cn1c(=O)c2[nH]c(Cl)nc2n(C)c1=O [DIMENHYDRINATE] , please.
11.97

Recorded PHOSPHORUS of CCN(CC)CCNC(=O)c1cc(Cl)c(N)cc1OC [METOCLOPRAMIDE] , please.
10.48

* * *

species: Rattus norvegicus; assay: DrugMatrix - Regimen: Daily Repeat; assay type: toxicity, organism-based, Sprague-Dawley; design: regimen Daily Repeat, gender Male, age 6-8 weeks; settings: in vivo, po, 0 mg/kg, 72 h, tissue Blood, route oral GAVAGE, dose level Control, time 3 day, vehicle .5 % CMC
quantity kind: PLATELET COUNT

[
  {
    "compound": "NCC(CC(=O)O)c1ccc(Cl)cc1 (stereo unspecified)",
    "quantity kind": "PLATELET COUNT",
    "reported measurement": "1342 x10E3/uL"
  }
]

Recorded PLATELET COUNT of CC(C)Cc1ccc([C@H](C)C(=O)O)cc1 , please.
1217.17 x10E3/uL

Recorded PLATELET COUNT of Cc1cc2c(s1)Nc1ccccc1N=C2N1CCN(C)CC1 , please.
1298 x10E3/uL

Recorded PLATELET COUNT of CC(=O)Nc1ccc2c(c1)Cc1ccccc1-2 , please.
1342 x10E3/uL

Recorded PLATELET COUNT of O=C1c2ccccc2C(=O)C1c1ccccc1 , please.
1378.2 x10E3/uL

Recorded PLATELET COUNT of CCN1CCCC1CNC(=O)c1cc(S(N)(=O)=O)ccc1OC (stereo unspecified) [SULPIRIDE] , please.
1250.83 x10E3/uL

* * *

species: Rattus norvegicus; assay: DrugMatrix - Regimen: Daily Repeat; type: toxicity, organism-based, Sprague-Dawley; design: regimen Daily Repeat, gender Male, age 6-8 weeks; details: in vivo, po, 1500 mg/kg, 120 h, tissue Blood, route oral GAVAGE, dose level High, time 5 day, vehicle .5 % CMC
Examples of molecules with documented EOSINOPHIL follow.
Could you give me the number in %? Just the number is fine.

[
  {
    "molecule": "O=C(O)CCc1nc(-c2ccccc2)c(-c2ccccc2)o1",
    "quantity kind": "EOSINOPHIL",
    "result units": "%",
    "reported measurement": 0
  }
]

Recorded EOSINOPHIL of COc1cc(/C=C/C(=O)O)ccc1O [FERULATE] , please.
0.33

Recorded EOSINOPHIL of COc1ccc(Cl)cc1C(=O)NCCc1ccc(S(=O)(=O)NC(=O)NC2CCCCC2)cc1 [GLYBURIDE] , please.
0
